- test: qHTS Assay for Identification of Small Molecule Antagonists for NFkB Signaling Pathway (AID 895)
- recorded.conditions: NFkB beta-lactamase reporter cells, FRET ratio 460/530; series mostly up to 38.3 µM
Results filed as inconclusive are left out. Active and inactive are the calls of the source. The call rests on the fitted dose curve; in most records, active means well fitted inhibition curve with a large enough effect in the signal ratio, with a control signal flat (not every such curve was filed as active); inconclusive means small, poorly fitted or top-dose-only effect, or effect the other way, or a change in a side signal; inactive means flat fitted curve, though single readings scatter; the % refers to the signal ratio.
Outcome codes: YES (active), NO (inactive)

>  <mol>
N[C@H](Cn1ccc(=O)[nH]c1=O)C(=O)O

>  <group>
NO

$$$$
>  <mol>
CC(=O)c1c(O)c(C)c(O)c(Cc2c(O)c3c(c(C(=O)/C=C\c4ccccc4)c2O)OC(C)(C)C=C3)c1O

>  <group>
YES

$$$$
>  <mol>
COC(=O)[C@H](N)CCCN=C(N)N[N+](=O)[O-]

>  <group>
NO

$$$$
>  <mol>
CC(C)C[C@H](NP(=O)(O)O[C@@H]1O[C@@H](C)[C@@H](O)[C@@H](O)[C@H]1O)C(=O)N[C@@H](Cc1c[nH]c2ccccc12)C(=O)O

>  <group>
NO

$$$$
>  <mol>
C[C@]12CC[C@H](O)C[C@@H]1CC[C@H]1[C@H]2CC[C@]2(C)[C@H](C(=O)CO)CC[C@@H]12

>  <group>
NO

$$$$
>  <mol>
COc1ccc2c3c1O[C@@H]1C(=O)CC[C@@]4(O)[C@@H](C2)N(CC2CC2)CC[C@]314

>  <group>
NO

$$$$
>  <mol>
CCCN1CC[C@@H]2c3cc(O)ccc3CC[C@H]21

>  <group>
NO

$$$$
>  <mol>
Oc1ccc2c3c1O[C@@H]1c4[nH]c5c(c4C[C@@]4(O)[C@@H](C2)N(CC2CC2)CC[C@]314)C[C@]1(O)[C@@H]2Cc3ccc(O)c4c3[C@@]1(CCN2CC1CC1)[C@H]5O4

>  <group>
NO

$$$$
>  <mol>
CCNC(=O)[C@@H]1O[C@@H](n2cnc3c(N)ncnc32)[C@@H](O)[C@H]1O

>  <group>
NO

$$$$
